Quick note: these are pKi numbers for system: UniProt P22748
Sequence (P22748 whole entry): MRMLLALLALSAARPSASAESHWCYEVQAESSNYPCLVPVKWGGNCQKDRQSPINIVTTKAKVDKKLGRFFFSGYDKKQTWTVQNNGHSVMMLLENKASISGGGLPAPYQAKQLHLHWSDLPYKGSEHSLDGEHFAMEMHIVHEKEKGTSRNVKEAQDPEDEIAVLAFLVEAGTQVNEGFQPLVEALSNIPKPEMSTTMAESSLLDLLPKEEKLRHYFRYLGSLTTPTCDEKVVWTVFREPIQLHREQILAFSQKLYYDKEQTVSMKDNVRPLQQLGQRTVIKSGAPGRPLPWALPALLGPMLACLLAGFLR
pKi: −log10 of the molar value.

{"molecule": "Nc1cc([Se][C@@H]2O[C@H](CO)[C@@H](O)[C@H](O)[C@H]2O)ccc1S(N)(=O)=O", "value": "< 5.00"}
{"molecule": "NS(=O)(=O)c1ccc(NC(=S)Nc2ccc([Se][C@@H]3O[C@H](CO)C(O)[C@H](O)[C@H]3O)cc2)cc1 (single isomer, unassigned; 16a)", "value": 6.55}

Now, please, on to the next molecule.
Ask | Query (molecule): CC(=O)OC[C@H]1O[C@@H]([Se]c2ccc(S(N)(=O)=O)c(N)c2)[C@H](OC(C)=O)[C@@H](OC(C)=O)[C@H]1OC(C)=O ; field requested: pKi
Reply | < 5.00

###

# target: Carbonic anhydrase 12 (Homo sapiens)
# Sequence (O43570 whole entry): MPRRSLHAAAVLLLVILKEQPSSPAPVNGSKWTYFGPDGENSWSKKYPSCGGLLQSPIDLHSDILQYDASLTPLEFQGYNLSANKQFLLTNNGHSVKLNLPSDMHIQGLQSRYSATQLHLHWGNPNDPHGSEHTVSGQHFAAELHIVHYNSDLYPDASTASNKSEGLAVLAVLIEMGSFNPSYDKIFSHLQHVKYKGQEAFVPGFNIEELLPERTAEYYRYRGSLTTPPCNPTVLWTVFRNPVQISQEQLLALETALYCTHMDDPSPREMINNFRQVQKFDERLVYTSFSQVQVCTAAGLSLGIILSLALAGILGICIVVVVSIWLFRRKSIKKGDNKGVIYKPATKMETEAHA
pKi: −log10 of the molar value.
Returns one of condition met or condition not met; condition met when pKi is >= 6.

# count of solved cases: 3
{"compound": "NS(=O)(=O)c1cc(C(=O)Nc2ccc([Se][C@@H]3O[C@H](CO)[C@H](O)[C@H](O)[C@H]3O)cc2)ccc1Cl", "label": "condition met"}
{"compound": "NS(=O)(=O)c1ccc(NC(=S)Nc2ccc([Se][C@@H]3O[C@H](CO)C(O)[C@H](O)[C@H]3O)cc2)cc1 (single isomer, unassigned; 16b)", "label": "condition met"}
{"compound": "NS(=O)(=O)c1ccc([Se][C@@H]2O[C@H](CO)[C@@H](O)[C@H](O)[C@H]2O)cc1", "label": "condition met"}

Ask | State whether the measured pKi reaches 6, counting equality as reaching it, for CC(=O)O[C@@H]1[C@@H](OC(C)=O)[C@H]([Se]c2ccc(S(N)(=O)=O)cc2)O[C@H](CO)[C@H]1OC(C)=O
Reply | condition met

Ask | Would you mind doing Nc1cc([Se][C@@H]2O[C@H](CO)[C@@H](O)[C@H](O)[C@H]2O)ccc1S(N)(=O)=O as well?
Reply | condition not met

Ask | Would you mind doing NS(=O)(=O)c1ccc(C(=O)Nc2ccc([Se][C@@H]3O[C@H](CO)[C@H](O)[C@H](O)[C@H]3O)cc2)cc1 as well?
Reply | condition met

###

# target: UniProtKB Q9Y2D0
# Sequence (Q9Y2D0 whole entry): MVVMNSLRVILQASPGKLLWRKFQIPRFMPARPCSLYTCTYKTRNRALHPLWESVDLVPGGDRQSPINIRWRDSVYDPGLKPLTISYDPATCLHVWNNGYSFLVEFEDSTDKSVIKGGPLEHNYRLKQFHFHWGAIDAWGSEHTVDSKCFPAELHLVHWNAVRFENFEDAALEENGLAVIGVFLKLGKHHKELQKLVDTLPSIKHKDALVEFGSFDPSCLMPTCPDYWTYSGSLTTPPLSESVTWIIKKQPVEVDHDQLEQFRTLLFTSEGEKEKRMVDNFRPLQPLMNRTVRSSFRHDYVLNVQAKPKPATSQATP
quantity.name: Ki (nM)
Number in nM, nothing else.

{"compound": "CC(=O)O[C@H]1[C@@H](OC(C)=O)[C@@H](CO)O[C@@H]([Se]c2ccc(S(N)(=O)=O)c(N)c2)[C@@H]1OC(C)=O", "unit.info": "nM", "Ki": 172}
{"compound": "NS(=O)(=O)c1ccc(NC(=S)Nc2ccc([Se][C@@H]3O[C@H](CO)C(O)[C@H](O)[C@H]3O)cc2)cc1 (single isomer, unassigned; 16a)", "unit.info": "nM", "Ki": 7.6}
{"compound": "NS(=O)(=O)c1ccc(C(=O)Nc2ccc([Se][C@@H]3O[C@H](CO)[C@H](O)[C@H](O)[C@H]3O)cc2)cc1", "unit.info": "nM", "Ki": 88}

Now, please, on to the next compound.
Ask | Query (compound): CC(=O)OC[C@H]1O[C@@H]([Se]c2ccc(NC(=O)c3ccc(S(N)(=O)=O)cc3)cc2)[C@H](OC(C)=O)[C@@H](OC(C)=O)[C@H]1OC(C)=O ; field requested: Ki
Reply | 4
